Here, each record is paired with measured IC50 data.
# Target Desc: recombinant human B1 receptors (Homo sapiens, UniProt P46663)
# Construct: host or cells: CHO (CHO-B1)
# Sequence (P46663 1-353): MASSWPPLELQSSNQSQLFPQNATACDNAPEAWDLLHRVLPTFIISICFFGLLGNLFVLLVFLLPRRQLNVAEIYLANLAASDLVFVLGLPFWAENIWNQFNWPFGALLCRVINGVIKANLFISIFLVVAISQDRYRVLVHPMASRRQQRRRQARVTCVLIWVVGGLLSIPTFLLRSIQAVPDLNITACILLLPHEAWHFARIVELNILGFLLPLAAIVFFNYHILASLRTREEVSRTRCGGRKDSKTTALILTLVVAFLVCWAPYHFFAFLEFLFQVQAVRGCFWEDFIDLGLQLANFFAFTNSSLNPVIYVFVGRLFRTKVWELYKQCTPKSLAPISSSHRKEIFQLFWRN
# Method Description: Functional assay: antagonist potency by cytosolic calcium measurement (plate reader fluorimeter) in CHO-B1 cells, agonist LysDABK
# Assay type: cell-based
# Measurement Conditions: CHO-B1 cells, inhibition of LysDABK (EC80)-evoked [Ca2+]i elevation; read-out: B1 func.
Observable: IC50

{"Molecule Smiles": "COc1ccc2c(c1)cc(-c1nc(C)no1)n2-c1ccc(CNC(=O)C2(NC(=O)CC(F)(F)F)CC2)cc1", "Observable": "IC50", "Test Result": "< 0.02 µM"}
{"Molecule Smiles": "Cc1nc(-c2c(Cl)c3ccccc3n2-c2ccc(CNC(=O)C3(NC(=O)C4(C#N)CC4)CC3)cc2)no1", "Observable": "IC50", "Test Result": "0.02 to 0.1 µM"}
{"Molecule Smiles": "Cc1nc(-c2c(Cl)c3ccccc3n2-c2ccc(CNC(=O)C3(NC(=O)c4cccc(C#N)c4)CC3)cc2)no1", "Observable": "IC50", "Test Result": "< 0.02 µM"}
{"Molecule Smiles": "Cn1nnc(-c2c(Cl)c3ccccc3n2-c2ccc(CNC(=O)C3(NC(=O)c4cccc(F)c4)CC3)cc2)n1", "Observable": "IC50", "Test Result": "< 0.02 µM"}
{"Molecule Smiles": "Cc1noc(-c2cc3cc(F)ccc3n2-c2ccc(CNC(=O)C3(NC(=O)c4cncc(C(F)(F)F)c4)CC3)cc2)n1", "Observable": "IC50", "Test Result": "< 0.02 µM"}
{"Molecule Smiles": "Cc1ccc(C(=O)NC2(C(=O)NCc3ccc(-n4c(-c5noc(C)n5)c(Cl)c5ccccc54)cc3)CC2)cn1", "Observable": "IC50", "Test Result": "< 0.02 µM"}
{"Molecule Smiles": "Cc1nc(-c2c(Cl)c3ccccc3n2-c2ccc(CNC(=O)C3(NC(=O)c4ccncc4F)CC3)cc2)no1", "Observable": "IC50", "Test Result": "0.02 to 0.1 µM"}

###

# Target Desc: recombinant human B1 receptors (Homo sapiens)
# Construct: host or cells: CHO (CHO-B1)
# Sequence (P46663 1-353): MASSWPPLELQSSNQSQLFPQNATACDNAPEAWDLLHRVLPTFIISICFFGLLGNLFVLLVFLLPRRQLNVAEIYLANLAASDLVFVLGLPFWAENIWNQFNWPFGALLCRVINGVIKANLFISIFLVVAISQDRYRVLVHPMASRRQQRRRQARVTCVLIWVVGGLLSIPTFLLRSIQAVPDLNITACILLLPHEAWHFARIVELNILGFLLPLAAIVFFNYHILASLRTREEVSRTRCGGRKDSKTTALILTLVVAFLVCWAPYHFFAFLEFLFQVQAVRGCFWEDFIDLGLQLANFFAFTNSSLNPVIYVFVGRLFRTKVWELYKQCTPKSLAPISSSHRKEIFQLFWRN
# Method Description: Functional assay: antagonist potency by cytosolic calcium measurement (plate reader fluorimeter) in CHO-B1 cells, agonist LysDABK
# Type: cell-based
# Measurement Conditions: CHO-B1 cells, inhibition of LysDABK (EC80)-evoked [Ca2+]i elevation; read-out: B1 func.
Here, each record is paired with measured IC50 data.
Observable: IC50

{"Compound": "Cc1nnc(-c2c(Cl)c3ccccc3n2-c2ccc(CNC(=O)C3(NC(=O)C(F)(F)F)CC3)cc2)o1 [Example 6]", "Test Result": "20 to 100 nM"}
{"Compound": "COc1cc(C(=O)NC2(C(=O)NCc3ccc(-n4c(-c5noc(C)n5)c(Cl)c5cc(F)ccc54)cc3)CC2)on1 [Example 67]", "Test Result": "< 20 nM"}
{"Compound": "Cc1nc(-c2c(Cl)c3ccccc3n2-c2ccc(CNC(=O)C3(NC(=O)C4CCC(=O)N4)CC3)cc2)no1 (stereo not shown) [Example 168]", "Test Result": "20 to 100 nM"}
{"Compound": "Cc1nc(-c2c(Cl)c3ccccc3n2-c2ccc(CNC(=O)C3(NC(=O)c4csnn4)CC3)cc2)no1 [Example 174]", "Test Result": "< 20 nM"}
{"Compound": "Cc1nc(-c2c(Cl)c3ccccc3n2-c2ccc(CNC(=O)C3(NC(=O)c4cc(C(F)(F)F)ccc4F)CC3)cc2)no1 [Example 96]", "Test Result": "< 20 nM"}
{"Compound": "COc1cc(C(=O)NC2(C(=O)NCc3ccc(-n4c(-c5nc(C)no5)cc5ccccc54)cc3)CC2)on1 [Example 196]", "Test Result": "20 to 100 nM"}
{"Compound": "Cc1nc(-c2c(Cl)c3ccccc3n2-c2ccc(CNC(=O)C3(NC(=O)c4cccnc4Cl)CC3)c(F)c2)no1 [Example 104]", "Test Result": "< 20 nM"}
